target: Nicotinamide N-methyltransferase (Homo sapiens); assay: Confirmatory Screen for Target Class Profiling of Small Molecule Inhibitors of Methyltransferases (AID 1745852); settings: MTase-Glo luminescence, SAH detection, recombinant enzyme; measured here: NNMT max response; stronger effect = lower value
Record form. Attribute: activity. Fill in for each entry.
Numbers only, in %.

Please review the following examples before continuing.
{"molecule": "CC1CCCC(NC(=O)C2(C)Cn3c(cc4occc43)C(=O)N2Cc2ccco2)C1C (stereo not given)", "quantity kind": "activity", "numeric value": -20.3}
{"molecule": "O=c1c2ccccc2n2c(-c3cc(Cl)ccc3O)nnc2n1Cc1ccc(F)cc1", "quantity kind": "activity", "numeric value": -13.1}
{"molecule": "COc1ccc(C2CC(=O)c3cc(-c4nc(-c5cccc([N+](=O)[O-])c5)cs4)c(=O)n(-c4ccccc4N)c3C2)cc1 (stereo not given)", "quantity kind": "activity", "numeric value": -5.71}
{"molecule": "COc1cncc(Nc2ncc(-c3ccccc3OC)c3c2OCC3)c1", "quantity kind": "activity", "numeric value": -19.7}
{"molecule": "Cc1oc(C(=O)O)cc1COc1ccc2c(-c3ccccc3)cc(=O)oc2c1C", "quantity kind": "activity", "numeric value": -43.8}
{"molecule": "CCN(CC)CCCNC(=O)CCCc1nnc2n3nc(-c4ccccc4)nc3c3ccccc3n12", "quantity kind": "activity", "numeric value": -0.543}

For every record below, what is its activity?
1. O=C(NCCCN1CCc2ccccc2C1)C1CCc2ncc(-c3ccc(F)cc3)n2C1 (stereo not given)
2. O=C(Cn1c(=O)oc2cc(S(=O)(=O)N3CCCC3)ccc21)Nc1cccc(Cl)c1

Reply text:
1. 3.39
2. 4.81

For every record below, what is its activity?
1. COc1ccc(CCNC(=O)c2ccc3c(=O)[nH]c4c(C(=O)NC5CCCC5)sc(=S)n4c3c2)cc1OC
2. COc1ccc(CN2C(=O)c3cc4ccccc4n3CC2(C)C(=O)NCc2ccccc2)cc1OC (stereo not given)
3. CN1CCN(C)c2cnc(-c3cnn(Cc4ccccc4)c3)cc2C1
4. COC(=O)c1nc(NC(=O)Cn2nc3c(cc2=O)CCCC3)sc1C(C)C
5. CCCCN1C(=O)c2cc(C(=O)Nc3cc(C)cc(C)c3)nn2CC1(C)C(=O)NC1CCCC1 (stereo not given)

Reply text:
1: -49.2; 2: -57.8; 3: 6.62; 4: -8.15; 5: 1.44

For every record below, what is its activity?
1. CNC(=O)NCCc1ncc(C)n1C1CCCCCCC1
2. c1ccc(CO[C@H]2COCCN(c3nc4ccccc4o3)C2)cc1
3. CCOC(=O)c1cc2n(n1)CC(C)(C(=O)NCCC(C)C)N(c1ccccc1C)C2=O (stereo not given)
4. CCOC(=O)c1cccc(Nc2cc(C)nc3ccc(C)cc23)c1
5. COc1ccc(-c2cc3c(cn2)CN(CCc2ccccc2)CCN3)cc1OC
6. Cn1ncc2c(N3CCN(S(N)(=O)=O)CC3)nc(C3CCCC3)nc21
7. CC1(C(=O)NC2CCCCCC2)Cn2c(c(-n3cccc3)c3ccccc32)C(=O)N1CC1CCCO1 (stereo not given)
8. COc1ccc(NC(=O)CCc2ccnc(N3CCCC3)c2)c(OC)c1

Reply text:
1. -4.6
2. -5.26
3. 3.85
4. -21.8
5. -18.9
6. -39.7
7. -46.9
8. -4.13

For every record below, what is its activity?
1. CC1CCN(CCCNC(=O)CCc2nnc3n(Cc4ccccc4)c(=O)c4ccccc4n23)CC1
2. CCc1cccc(NC(=O)Cn2c(=O)oc3cc(S(=O)(=O)N4CCCCC4)ccc32)c1
3. Cc1ccc(-c2ccc(N)nc2)c2cccnc12
4. Cn1nccc1-c1cc2c(cn1)CN(Cc1ccncc1)CCN2
5. CCOc1cc(CNc2ccc(C(=O)O)cc2)ccc1OCc1ccccc1

Reply text:
1. -2.83
2. -2.82
3. -2.78
4. -4.82
5. -22.2

For every record below, what is its activity?
1. CC(C)CCn1c(=O)c2ccccc2n2c(CCC(=O)N3CCN(c4cccc(Cl)c4)CC3)nnc12
2. CN(CCc1nc2ccc(Cl)cc2[nH]1)c1cc(C2CC(O)C2)nc(N)n1 (stereo not given)
3. C[C@H]1CN(C(=O)c2nn(C)c3ccccc23)C[C@@H]1c1nc(-c2cccnc2)no1
4. COc1ccc(CCN2C(=O)c3cc4oc(C)cc4n3CC2(C)C(=O)NC2CCCCC2)cc1OC (stereo not given)

Reply text:
-55.2
-2.79
-94
-78.3

For every record below, what is its activity?
1. CCN(CC)CCNC(=O)CCc1nnc2n(Cc3ccc(C)cc3)c(=O)c3ccccc3n12
2. C[C@H]1CN(C(=O)Nc2ccc(F)cc2F)C[C@@H]1c1nc(-c2ccccc2)no1
3. COc1ccccc1CC(=O)N1CCCc2ncc(C(=O)Nc3cccc(Cl)c3)cc21
4. O=C(CCc1nnc2n(Cc3ccc(Cl)cc3)c(=O)c3ccccc3n12)N1CCC(N2CCCCC2)CC1
5. CC1CC(C)CN(S(=O)(=O)c2ccc3c(c2)oc(=O)n3CC(=O)Nc2cccc(F)c2)C1 (stereo not given)
6. Cc1noc(C)c1-c1cc2c(cc(C)n2CCN(C)C)c(Nc2ccncn2)n1
7. COc1ccc(-c2oc3ccc(C)cc3c(=O)c2O)cc1OC

Reply text:
1. -14.5
2. -92.4
3. 9.05
4. -21.6
5. -0.567
6. -15.3
7. 1.6

For every record below, what is its activity?
1. CC(C)c1nccn1CCCNC(=O)c1ccc(N2CCCC(CO)C2)nc1 (stereo not given)
2. COc1ccc(NC(=O)C(C)(C)Oc2nn(CC3CC3)c3ccc(CN4CCCC4)cc23)cc1
3. O=C(OCc1ccccc1)N1CCOCC12CCN(Cc1c[nH]c3ccccc13)CC2

Reply text:
6.68
5.5
5.55
